- protocol.text: Gastrointestinal ulcerogenicity
- Type: in vivo, rat (male Sprague-Dawley)
- protocol.conditions: rat, in vivo, po
result.type: TD50 at 24 h

1. CC(=O)Nc1ccc(O)cc1 [Paracetamol, reference compound] = > 400 mg/kg
2. Cc1oncc1C(=O)N1CCCCC1 [Example 1] = > 400 mg/kg

====

- protocol.text: Acetic acid extension test on mice (analgesic action)
- protocol.conditions: mouse, in vivo, po
result.type: selectivity ratio

1) CC(=O)Oc1ccccc1C(=O)O [Acetylsalicylic acid, reference compound] = 10.9
